Reference for the values: patent US6677310B1

# System: OVCAR-5
# assay text: SRB anti-cancer assay, Ovarian Cancer
# Type: cell-based, human
# test parameters: OVCAR-5 (Ovarian Cancer), 48 h; read-out: LC50 (the source's name)
Entries and their measured CC50 follow.
Just the number please, in µM, no unit attached.

mol_smiles=N=c1nc(N)c2ncn([C@@H]3O[C@H](COC(=O)c4ccccc4)[C@@H](OC(=O)c4ccccc4)[C@H]3OC(=O)c3ccccc3)c2c(N)n1 study_target=OVCAR-5 metric=CC50 assay_result=57.7

Kindly review the next molecule as well.
Record `N=c1nc(N)c2ncn([C@@H]3O[C@H](CO)[C@@H](O)[C@H]3O)c2c(N)n1` . Reported CC50: 64

---

# Lookup of reported LC50 (50% lethal concentration) keyed by entry
# System: OVCAR-8
# assay text: SRB anti-cancer assay, Ovarian Cancer
# Format: cell-based, human
# test parameters: OVCAR-8 (Ovarian Cancer), 48 h

mol_smiles=N=c1nc(N)c2ncn([C@@H]3O[C@H](COC(=O)c4ccccc4)[C@@H](OC(=O)c4ccccc4)[C@H]3OC(=O)c3ccccc3)c2c(N)n1 study_target=OVCAR-8 metric="LC50 (50% lethal concentration)" assay_result="> 100 µM"

// returns LC50 (50% lethal concentration) for `N=c1[nH]c(=O)c2ncn([C@@H]3O[C@H](CO)[C@@H](O)[C@H]3O)c2c(=O)[nH]1` with OVCAR-8; value = > 100 µM

Param item: `N=c1nc(N)c2ncn([C@@H]3O[C@H](CO)[C@@H](O)[C@H]3O)c2c(N)n1` ; param system: OVCAR-8; output LC50 (50% lethal concentration): 75.3 µM

---

# Tested on: HT29
# assay text: SRB anti-cancer assay, Colon Cancer
# Type: cell-based, human
# test parameters: 48 h, read-out: LC50 (the source's name)
metric: CC50 (µM)
Expressed in µM, but write only the number.

Short answer for `N=c1nc(N)c2ncn([C@@H]3O[C@H](COC(=O)c4ccccc4)[C@@H](OC(=O)c4ccccc4)[C@H]3OC(=O)c3ccccc3)c2c(N)n1` : CC50 was 42.3

---

# assay text: Neutral red uptake assay, stationary HFF cells
# Format: cell-based
# test parameters: human, read-out: Cytotoxicity (IC50), Neutral Red Uptake
Recorded measurements of IC50 at 7 days, one per entry

compound=O=C1c2nc(Br)n(Cc3ccccc3)c2N(Cc2ccccc2)C(=O)CN1Cc1ccccc1 metric="IC50 at 7 days" assay_result="88.1 µg/mL"
compound="Nc1nc2c(ncn2COCCO)c(=O)[nH]1 [Aciclovir, reference compound]" metric="IC50 at 7 days" assay_result="> 100 µg/mL"

Sample `O=C1c2ncn(Cc3ccccc3)c2N(Cc2ccccc2)C(=O)CN1Cc1ccccc1` ; IC50 at 7 days observed: > 100 µg/mL

For this compound ( Nc1nc(O)c2ncn(COC(CO)CO)c2n1 [Ganciclovir, reference compound] ), measured IC50 at 7 days is > 100 µg/mL

Please fill in: IC50 at 7 days reported for `O=C1NCC(=O)N(Cc2ccccc2)c2c1nc(Br)n2Cc1ccccc1` = > 100 µg/mL

---

# Tested on: KM12
# assay text: SRB anti-cancer assay, Colon Cancer
# Assay type: cell-based, human
# test parameters: 48 h
Each item that follows carries a reported LC50.

Form field LC50, entry `N=c1nc(N)c2ncn([C@@H]3O[C@H](CO)[C@@H](O)[C@H]3O)c2c(N)n1` : > 100 µM

// LC50 lookup, compound = `N=c1nc(N)c2ncn([C@@H]3O[C@H](COC(=O)c4ccccc4)[C@@H](OC(=O)c4ccccc4)[C@H]3OC(=O)c3ccccc3)c2c(N)n1` , result: 53.6 µM

Lab book: LC50 of `N=c1[nH]c(=O)c2ncn([C@@H]3O[C@H](CO)[C@@H](O)[C@H]3O)c2c(=O)[nH]1` noted as > 100 µM
